# System: non-tumor-bearing immunocompetent FVB mice
# ASSAY COMMENT: Biodistribution of lanthanide chloride salts LnCl3 (multiplexed ICP-MS)
# Type: in vivo
# EXPERIMENTAL CONTEXT: 24 h p.i., non-tumor-bearing mice
Would you kindly list Tissue uptake: Intestines for each of these compounds?
Report the figure in % ID/g without appending any unit label.

Query string: For the record [Cl][Tb]([Cl])[Cl] [[^159Tb]TbCl3] , what value of Tissue uptake: Intestines is listed for non-tumor-bearing immunocompetent FVB mice?
Result string: 0.54

Query string: Field entry: [Cl][Gd]([Cl])[Cl] [[^157Gd]GdCl3]
Result string: 0.71

Query string: Field entry: [Cl][Lu]([Cl])[Cl] [[^175Lu]LuCl3]
Result string: 0.61

Query string: Field entry: [Cl-].[Cl-].[Cl-].[Eu+3] [[^153Eu]EuCl3]
Result string: 0.58

----------
# ASSAY COMMENT: Biodistribution of Ln-DOTATATE and Ln-DOTA-LM3 (multiplexed ICP-MS)
# EXPERIMENTAL CONTEXT: female, CD1 nude, mouse, heart, intravenous, 0.5 nmol, Tissue uptake: Heart, 1 h p.i., AR42J tumor-bearing mice
Where a SMILES comes first, the peptide text is derived from it. Bridges are numbered along the chain shown (N, C = ends). [ ]: non-standard residue; d: D form. The star is where a group is joined. DOTA = O=C(O)CN1CCN(CC(=O)O)CCN(CC(=O)*)CCN(CC(=O)O)CC1; dPhe(4-NHCONH2) = NC(=O)Nc1ccc(C[C@@H](N)C(=O)O)cc1; Phe(4-Cl) = N[C@@H](Cc1ccc(Cl)cc1)C(=O)O
MEASUREMENT NAME: tissue uptake at 1 h

Query string: # query: tissue uptake at 1 h of entry C[C@@H](O)[C@@H]1NC(=O)[C@H](CCCCN)NC(=O)[C@@H](Cc2ccc(NC(N)=O)cc2)NC(=O)[C@H](Cc2ccc(O)cc2)NC(=O)[C@H](NC(=O)[C@H](Cc2ccc(Cl)cc2)NC(=O)CN2CCN(CC(=O)O)CCN(CC(=O)O)CCN(CC(=O)O)CC2)CSSC[C@@H](C(=O)N[C@H](Cc2ccc(O)cc2)C(N)=O)NC1=O [[^175Lu]Lu-DOTA-LM3] ({DOTA}-[Phe(4-Cl)][dC]Y[dPhe(4-NHCONH2)]KTC[dY]-NH2; disulfide 2-7 (inferred); C-terminus assumed)
Result string: < 0.5 %ID/g

----------
# ASSAY COMMENT: Biodistribution of Ln-DOTATATE and Ln-DOTA-LM3 (multiplexed ICP-MS)
# EXPERIMENTAL CONTEXT: female, CD1 nude, mouse, bone, intravenous, 0.5 nmol, Tissue uptake: Bone, 24 h p.i., AR42J tumor-bearing mice
Where a SMILES comes first, the peptide text is derived from it. Bridges are numbered along the chain shown (N, C = ends). [ ]: non-standard residue; d: D form. The star is where a group is joined. DOTA = O=C(O)CN1CCN(CC(=O)O)CCN(CC(=O)*)CCN(CC(=O)O)CC1; dPhe(4-NHCONH2) = NC(=O)Nc1ccc(C[C@@H](N)C(=O)O)cc1; Phe(4-Cl) = N[C@@H](Cc1ccc(Cl)cc1)C(=O)O
MEASUREMENT NAME: tissue uptake at 24 h

Query string: # query: tissue uptake at 24 h of entry C[C@@H](O)[C@@H]1NC(=O)[C@H](CCCCN)NC(=O)[C@@H](Cc2ccc(NC(N)=O)cc2)NC(=O)[C@H](Cc2ccc(O)cc2)NC(=O)[C@H](NC(=O)[C@H](Cc2ccc(Cl)cc2)NC(=O)CN2CCN(CC(=O)O)CCN(CC(=O)O)CCN(CC(=O)O)CC2)CSSC[C@@H](C(=O)N[C@H](Cc2ccc(O)cc2)C(N)=O)NC1=O [[^175Lu]Lu-DOTA-LM3] ({DOTA}-[Phe(4-Cl)][dC]Y[dPhe(4-NHCONH2)]KTC[dY]-NH2; disulfide 2-7 (inferred); C-terminus assumed)
Result string: < 0.5 %ID/g

----------
Would you kindly list Tissue uptake: Intestines for each of these compounds?
# System: non-tumor-bearing immunocompetent FVB mice
# ASSAY COMMENT: Biodistribution of lanthanide chloride salts LnCl3 (multiplexed ICP-MS)
# Type: in vivo
# EXPERIMENTAL CONTEXT: 1 h p.i., non-tumor-bearing mice

Query string: For the record [Cl-].[Cl-].[Cl-].[Eu+3] [[^153Eu]EuCl3] , what value of Tissue uptake: Intestines is listed for non-tumor-bearing immunocompetent FVB mice?
Result string: 2.6 ± 0.9 % ID/g

Query string: Field entry: [Cl][Tb]([Cl])[Cl] [[^159Tb]TbCl3]
Result string: 2.6 ± 1.0 % ID/g

Query string: Field entry: [Cl][Lu]([Cl])[Cl] [[^175Lu]LuCl3]
Result string: 3.2 ± 1.1 % ID/g

Query string: Field entry: [Cl][Gd]([Cl])[Cl] [[^157Gd]GdCl3]
Result string: 2.5 ± 0.8 % ID/g

----------
# Tested on: non-tumor-bearing immunocompetent FVB mice
# ASSAY COMMENT: Biodistribution of lanthanide chloride salts LnCl3 (multiplexed ICP-MS)
# Assay type: in vivo
# EXPERIMENTAL CONTEXT: 1 h p.i., non-tumor-bearing mice
MEASUREMENT NAME: Tissue uptake: Muscle (% ID/g)
Report the figure in % ID/g without appending any unit label.

Query string: # query: Tissue uptake: Muscle of entry [Cl][Tb]([Cl])[Cl] [[^159Tb]TbCl3]
Result string: 1.6

Query string: Field entry: [Cl][Gd]([Cl])[Cl] [[^157Gd]GdCl3]
Result string: 1.6

Query string: Field entry: [Cl][Lu]([Cl])[Cl] [[^175Lu]LuCl3]
Result string: 1.5

Query string: Field entry: [Cl-].[Cl-].[Cl-].[Eu+3] [[^153Eu]EuCl3]
Result string: 1.7

----------
# ASSAY COMMENT: Biodistribution of Ln-DOTATATE and Ln-DOTA-LM3 (multiplexed ICP-MS)
# EXPERIMENTAL CONTEXT: female, CD1 nude, mouse, spleen, intravenous, 0.5 nmol, Tissue uptake: Spleen, 1 h p.i., AR42J tumor-bearing mice
Where a SMILES comes first, the peptide text is derived from it. Bridges are numbered along the chain shown (N, C = ends). [ ]: non-standard residue; d: D form. The star is where a group is joined. DOTA = O=C(O)CN1CCN(CC(=O)O)CCN(CC(=O)*)CCN(CC(=O)O)CC1; dPhe(4-NHCONH2) = NC(=O)Nc1ccc(C[C@@H](N)C(=O)O)cc1; Phe(4-Cl) = N[C@@H](Cc1ccc(Cl)cc1)C(=O)O
MEASUREMENT NAME: tissue uptake at 1 h

Query string: # query: tissue uptake at 1 h of entry C[C@@H](O)[C@@H]1NC(=O)[C@H](CCCCN)NC(=O)[C@@H](Cc2ccc(NC(N)=O)cc2)NC(=O)[C@H](Cc2ccc(O)cc2)NC(=O)[C@H](NC(=O)[C@H](Cc2ccc(Cl)cc2)NC(=O)CN2CCN(CC(=O)O)CCN(CC(=O)O)CCN(CC(=O)O)CC2)CSSC[C@@H](C(=O)N[C@H](Cc2ccc(O)cc2)C(N)=O)NC1=O [[^175Lu]Lu-DOTA-LM3] ({DOTA}-[Phe(4-Cl)][dC]Y[dPhe(4-NHCONH2)]KTC[dY]-NH2; disulfide 2-7 (inferred); C-terminus assumed)
Result string: < 0.5 %ID/g

----------
# Test system: non-tumor-bearing immunocompetent FVB mice
# ASSAY COMMENT: Biodistribution of lanthanide chloride salts LnCl3 (multiplexed ICP-MS)
# Assay type: in vivo
# EXPERIMENTAL CONTEXT: 1 h p.i., non-tumor-bearing mice
MEASUREMENT NAME: Tissue uptake: Liver (% ID/g)
Report the figure in % ID/g without appending any unit label.

Query string: For the record [Cl][Lu]([Cl])[Cl] [[^175Lu]LuCl3] , what value of Tissue uptake: Liver is listed for non-tumor-bearing immunocompetent FVB mice?
Result string: 11

Query string: Field entry: [Cl][Gd]([Cl])[Cl] [[^157Gd]GdCl3]
Result string: 34

Query string: Field entry: [Cl][Tb]([Cl])[Cl] [[^159Tb]TbCl3]
Result string: 27

Query string: Field entry: [Cl-].[Cl-].[Cl-].[Eu+3] [[^153Eu]EuCl3]
Result string: 41

----------
# Tested on: non-tumor-bearing immunocompetent FVB mice
# ASSAY COMMENT: Biodistribution of lanthanide chloride salts LnCl3 (multiplexed ICP-MS)
# Format: in vivo
# EXPERIMENTAL CONTEXT: 96 h p.i., non-tumor-bearing mice
MEASUREMENT NAME: Tissue uptake: Spleen (% ID/g)
Report the figure in % ID/g without appending any unit label.

Query string: # query: Tissue uptake: Spleen of entry [Cl-].[Cl-].[Cl-].[Eu+3] [[^153Eu]EuCl3]
Result string: 3.5

Query string: Field entry: [Cl][Lu]([Cl])[Cl] [[^175Lu]LuCl3]
Result string: 2.3

Query string: Field entry: [Cl][Tb]([Cl])[Cl] [[^159Tb]TbCl3]
Result string: 3.1

Query string: Field entry: [Cl][Gd]([Cl])[Cl] [[^157Gd]GdCl3]
Result string: 3.6
